target: CYP3A4 (Homo sapiens); assay: Inhibition of CYP3A4 (unknown origin) at 10 uM; type: ADME
Sequence (P08684 whole entry): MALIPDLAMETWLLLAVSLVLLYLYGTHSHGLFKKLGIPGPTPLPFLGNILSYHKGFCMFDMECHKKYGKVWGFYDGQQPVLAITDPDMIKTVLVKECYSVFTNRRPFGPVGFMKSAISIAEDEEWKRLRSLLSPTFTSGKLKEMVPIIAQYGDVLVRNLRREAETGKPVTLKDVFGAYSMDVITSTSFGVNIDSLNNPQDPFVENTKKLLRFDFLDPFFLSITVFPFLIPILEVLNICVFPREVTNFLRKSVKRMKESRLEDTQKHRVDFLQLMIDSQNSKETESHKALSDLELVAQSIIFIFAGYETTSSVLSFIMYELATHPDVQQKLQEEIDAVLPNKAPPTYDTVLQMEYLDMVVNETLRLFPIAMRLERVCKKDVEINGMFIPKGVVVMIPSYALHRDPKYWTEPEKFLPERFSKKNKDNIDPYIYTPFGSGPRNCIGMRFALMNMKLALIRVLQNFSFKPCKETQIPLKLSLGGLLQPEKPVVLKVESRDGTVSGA
Rule: inhibition at 10 µM of 90% or more gives class 1; anything lower gives class 0.

{"smi": "Cc1cc(-c2n[nH]c(CNc3ccc(Cl)cc3)n2)ccn1", "assigned.class": "class 0"}
{"smi": "O=C(NCCc1ccccc1)c1cccc(NCc2nc(-c3ccncc3)n[nH]2)c1", "assigned.class": "class 1"}
{"smi": "O=C(NCc1ccccc1)c1cccc(NCc2c[nH]c(-c3ccncc3)n2)c1", "assigned.class": "class 1"}
{"smi": "O=S(=O)(NCc1ccccc1)c1cccc(NCc2nc(-c3ccncc3)n[nH]2)c1", "assigned.class": "class 0"}
{"smi": "c1ccc(CSc2cccc(NCc3nc(-c4ccncc4)n[nH]3)c2)cc1", "assigned.class": "class 1"}
{"smi": "O=C(NCc1ccccc1)c1cccc(NCc2[nH]nc(-c3ccncc3)c2-c2ccccc2)c1", "assigned.class": "class 0"}
{"smi": "COc1ccccc1CNC(=O)c1cccc(NCc2nnc(-c3ccncc3)n2C)c1", "assigned.class": "class 0"}
{"smi": "Clc1ccccc1NCc1nc(-c2ccncc2)n[nH]1", "assigned.class": "class 1"}

====

biological target: Rho-associated protein kinase 2 (Homo sapiens, UniProt O75116); assay: Inhibition of recombinant human N-terminal GST-tagged ROCK2 catalytic domain (1 to 553 residues) expressed in baculovirus expression system using STK 2-biotin as substrate measured after 60 mins by HTRF/TR-FRET assay
Sequence (O75116 whole entry, the tested form may be a part): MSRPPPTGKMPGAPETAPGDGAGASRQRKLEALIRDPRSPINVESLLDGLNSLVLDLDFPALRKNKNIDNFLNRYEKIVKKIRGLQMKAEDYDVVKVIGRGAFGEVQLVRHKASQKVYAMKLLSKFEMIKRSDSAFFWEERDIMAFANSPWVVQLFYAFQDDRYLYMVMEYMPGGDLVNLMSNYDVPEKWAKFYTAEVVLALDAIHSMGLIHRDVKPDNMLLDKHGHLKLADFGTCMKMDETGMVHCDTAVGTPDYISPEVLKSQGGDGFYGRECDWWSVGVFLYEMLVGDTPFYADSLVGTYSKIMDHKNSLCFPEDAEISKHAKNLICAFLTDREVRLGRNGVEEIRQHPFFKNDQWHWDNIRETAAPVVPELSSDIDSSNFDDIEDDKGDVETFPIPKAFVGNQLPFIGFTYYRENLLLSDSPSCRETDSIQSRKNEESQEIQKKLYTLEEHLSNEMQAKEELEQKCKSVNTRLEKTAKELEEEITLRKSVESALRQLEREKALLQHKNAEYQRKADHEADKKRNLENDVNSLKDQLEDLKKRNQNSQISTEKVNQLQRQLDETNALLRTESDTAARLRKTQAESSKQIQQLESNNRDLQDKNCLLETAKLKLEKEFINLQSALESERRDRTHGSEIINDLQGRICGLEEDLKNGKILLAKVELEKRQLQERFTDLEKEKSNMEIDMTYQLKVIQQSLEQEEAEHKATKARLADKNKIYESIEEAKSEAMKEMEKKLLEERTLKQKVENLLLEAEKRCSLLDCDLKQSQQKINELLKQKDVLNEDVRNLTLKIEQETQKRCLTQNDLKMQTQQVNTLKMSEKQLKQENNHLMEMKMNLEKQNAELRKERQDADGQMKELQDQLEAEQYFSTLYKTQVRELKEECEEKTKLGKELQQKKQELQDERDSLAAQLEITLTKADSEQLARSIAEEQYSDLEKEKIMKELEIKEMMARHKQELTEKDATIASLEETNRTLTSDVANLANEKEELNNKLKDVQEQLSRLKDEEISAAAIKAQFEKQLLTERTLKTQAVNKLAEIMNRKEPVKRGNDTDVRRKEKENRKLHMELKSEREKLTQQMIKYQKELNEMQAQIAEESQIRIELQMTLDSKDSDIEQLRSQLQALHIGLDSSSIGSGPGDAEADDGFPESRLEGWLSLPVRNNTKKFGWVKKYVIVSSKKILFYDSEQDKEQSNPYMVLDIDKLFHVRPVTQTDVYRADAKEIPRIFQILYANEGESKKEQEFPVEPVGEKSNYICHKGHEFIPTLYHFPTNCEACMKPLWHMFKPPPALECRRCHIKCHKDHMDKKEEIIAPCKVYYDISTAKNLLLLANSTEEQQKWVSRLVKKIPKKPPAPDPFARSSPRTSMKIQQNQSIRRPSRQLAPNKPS
pIC50: −log10 of the molar value.
Reported values of pIC50 for individual entries
property: pIC50

{"smi": "O=C(Nc1nc(-c2ccncc2)n[nH]1)c1ccc(Cl)cc1", "lt.gt.eq": "<", "measured": 5.00}
{"smi": "O=C(NCc1ccccc1)c1cccc(NCc2csc(-c3ccncc3)n2)c1", "lt.gt.eq": "=", "measured": 6.92}
{"smi": "O=C(CNc1cccc(Oc2ccccc2)c1)N/N=C1\\CCCc2cnccc21", "lt.gt.eq": "=", "measured": 5.21}
{"smi": "CC(=O)Nc1cc(-c2nnc(CNc3cccc(C(=O)NCc4ccccc4C(F)(F)F)c3)n2C)ccn1", "lt.gt.eq": "<", "measured": 5.00}
{"smi": "Cn1c(CNc2cccc(C(=O)NCc3c(F)cccc3F)c2)nnc1-c1ccncn1", "lt.gt.eq": "=", "measured": 5.72}
{"smi": "O=C(NCc1ccccc1)c1cccc(NCc2nc(-c3ccncc3)n[nH]2)c1", "lt.gt.eq": "=", "measured": 7.62}
{"smi": "O=C(NCc1ccccc1)c1cccc(NCc2cc(-c3ccncc3)on2)c1", "lt.gt.eq": "=", "measured": 7.74}
{"smi": "Cn1c(CNc2cccc(C(=O)NCc3ccccc3C(F)(F)F)c2)nnc1-c1ccncn1", "lt.gt.eq": "=", "measured": 6.14}
{"smi": "Cc1cc(-c2n[nH]c(CNc3ccc(Cl)cc3)n2)ccn1", "lt.gt.eq": "=", "measured": 5.15}
{"smi": "COc1ccc(NCc2nc(-c3ccncc3)n[nH]2)cc1", "lt.gt.eq": "=", "measured": 6.55}
{"smi": "O=C(NCc1ccccc1)c1cccc(NCc2nnc(-c3ccncc3)o2)c1", "lt.gt.eq": "=", "measured": 6.49}
{"smi": "O=C(Cc1cccc(NCc2nc(-c3ccncc3)n[nH]2)c1)NCc1ccccc1", "lt.gt.eq": "=", "measured": 6.32}
{"smi": "COc1cccc(NCC(=O)N/N=C/c2ccncc2)c1", "lt.gt.eq": "=", "measured": 7.21}
